The following binders are shown together with reported pKd values.
Target: cynomolgus monkey DLL4 extracellular domain (cynomolgus monkey)
Assay: Biacore SPR; head says nM, kd/ka gives M
Value format note: pKd is -log10 of concentration (mol/L); just state the number.

h1A11.1 (antibody, V domains shown) VH: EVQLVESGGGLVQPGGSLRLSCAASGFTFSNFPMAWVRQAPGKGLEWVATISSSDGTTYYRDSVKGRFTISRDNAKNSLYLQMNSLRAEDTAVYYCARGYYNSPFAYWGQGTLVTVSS VL: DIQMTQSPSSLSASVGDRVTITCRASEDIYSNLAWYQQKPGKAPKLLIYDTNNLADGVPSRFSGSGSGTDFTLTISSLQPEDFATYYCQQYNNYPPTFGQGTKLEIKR: 7.74
h1A11.A2 (antibody, V domains shown) VH: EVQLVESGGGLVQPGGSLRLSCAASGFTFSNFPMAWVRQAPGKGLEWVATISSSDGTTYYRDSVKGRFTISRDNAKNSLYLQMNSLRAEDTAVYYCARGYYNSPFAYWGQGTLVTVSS VL: DIQMTQSPSSLSASVGDRVTITCRASQDIYINLAWYQQKPGKSPKLLIFDTNDLADGVPSRFSGSGSGTDFTLTISSLQPEDFATYYCQQYDYVPPTFGQGTKLEIK: 8.41

Continue with the binder presented below.
Give its pKd value. Item: h1A11.C6 (antibody, V domains shown) VH: EVQLVESGGGLVQPGGSLRLSCAASGFTFRNFPMAWVRQAPGKGLEWVATISSSDGWPTYRDSVKGRFTISRDNAKSSLYLQMNSLRAEDTAVYYCSRGYYNSPFAYWGQGTLVTVSS VL: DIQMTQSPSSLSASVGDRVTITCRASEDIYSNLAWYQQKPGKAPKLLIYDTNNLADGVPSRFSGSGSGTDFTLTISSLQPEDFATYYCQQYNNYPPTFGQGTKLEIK
9.74

Just for reference, patent US20160031986A1 is where these values come from.
